Hey, just so you know, these numbers are from patent US7514429B2.

- Experimental target: Neuropeptide Y2 (Rattus norvegicus, UniProt Q9ERC0)
- Sequence (Q9ERC0 1-381): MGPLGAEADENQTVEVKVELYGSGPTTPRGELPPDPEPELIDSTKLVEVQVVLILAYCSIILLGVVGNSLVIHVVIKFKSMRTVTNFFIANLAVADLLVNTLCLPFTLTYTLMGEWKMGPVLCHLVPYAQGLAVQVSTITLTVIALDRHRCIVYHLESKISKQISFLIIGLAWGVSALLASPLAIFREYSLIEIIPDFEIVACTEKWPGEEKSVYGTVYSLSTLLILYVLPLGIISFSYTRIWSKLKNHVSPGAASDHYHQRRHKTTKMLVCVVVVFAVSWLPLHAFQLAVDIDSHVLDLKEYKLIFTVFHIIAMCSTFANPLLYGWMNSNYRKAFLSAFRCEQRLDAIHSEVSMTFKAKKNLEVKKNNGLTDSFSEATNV
Counter-ions that a name gives are not always drawn.
Quantity: Ki

[[record]]
molecule = "Cc1ccc2c(c1)COC(=O)N2C1CCN(CC(=O)Nc2ccc3c(c2)-c2ccccc2C3=O)CC1 [Example 20, hydrochloride]"
quantity = "Ki"
result = "> 1000 nM"


Shift focus to the following entry.
Challenge: Please look up its Ki: O=C(CN1CCC(N2C(=O)OCc3ccccc32)CC1)Nc1ccc2c(c1)-c1ccccc1C2=O [Example 3, hydrochloride]
Response given: > 1000 nM
